target.or.system: UniProtKB Q05941
Sequence (Q05941 23-502): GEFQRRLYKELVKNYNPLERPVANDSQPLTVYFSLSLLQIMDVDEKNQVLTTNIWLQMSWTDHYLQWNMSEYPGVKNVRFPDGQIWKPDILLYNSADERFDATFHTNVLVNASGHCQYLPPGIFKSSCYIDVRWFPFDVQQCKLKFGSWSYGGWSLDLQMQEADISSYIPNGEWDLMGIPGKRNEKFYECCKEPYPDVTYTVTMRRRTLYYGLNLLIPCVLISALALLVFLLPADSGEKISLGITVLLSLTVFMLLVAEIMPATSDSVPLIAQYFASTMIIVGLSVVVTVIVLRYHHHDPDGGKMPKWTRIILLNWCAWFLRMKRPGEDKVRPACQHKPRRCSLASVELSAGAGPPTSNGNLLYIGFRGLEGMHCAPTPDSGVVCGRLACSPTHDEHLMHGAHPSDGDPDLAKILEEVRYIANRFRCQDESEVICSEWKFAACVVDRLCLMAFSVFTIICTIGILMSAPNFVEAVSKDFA
endpoint.label: IC50

INSERT INTO results (smiles_code, endpoint_label, reading) VALUES
  ('O=C(Oc1ccc(N=Nc2ccccc2)cc1)N1CCN2CCC1CC2', 'IC50', '1600 nM');

Attribution: patent US7994156B2
